Hello, the source for this data is patent US20190241669A1, in case you need it.

MEASURED_TARGET: Human BCMA (human) (UniProt Q02223)
METHOD: SPR, IgG on chip, huBCMA analyte
Would you kindly list Kd for each of these binders?
Give just the numeric value; nM need not be written.

Prompt: Look at this binder and give its reported Kd. COMBO_Rd4_6nM_C10 (antibody, V domains shown, IgG) VH: EVQLLESGGGLVQPGGSLRLSCAASGFTFSSYPMSWVRQAPGKGLEWVSAIGGSGGSIHYADSVKGRFTISRDNSKNTLYLQMNSLRAEDTAVYYCARYWPMDSWGQGTLVTVSS VL: EIVLTQSPGTLSLSPGERATLSCRASQSVSSSYWGWYQQKPGQAPRLLMYDASIRATGIPDRFSGSGSGTDFTLTISRLEPEDFAVYYCQQYQCWPLTFGQGTKVEIK
Response: 0.018

Prompt: Can you handle COMBO_Rd4_6nM_C25 (antibody, V domains shown, IgG) VH: EVQLLESGGGLVQPGGSLRLSCAASGFTFSSYPMSWVRQAPGKGLEWVSAIGGSGGSTYYADSVKGRFTISRDNSKNTLYLQMNSLRAEDTAVYYCARYWPMDPWGQGTLVTVSS VL: EIVLTQSPGTLSLSPGERATLSCRASQSVSSPYLAWYQQKPGQAPRLLMYDASIRATGIPDRFSGSGSGTDFTLTISRLEPEDFAVYYCQQYQSWPLTFGQGTKVEIK next?
Response: 0.014

Prompt: COMBO_Rd4_0.6nM_C11 (antibody, V domains shown, IgG) VH: EVQLLESGGGLVQPGGSLRLSCAASGFTFSSYPMSWVRQAPGKGLEWVSAALGSGGSTYYADSVKGRFTISRDNSKNTLYLQMNSLRAEDTAVYYCARYWPMSLWGQGTLVTVSS VL: EIVLTQSPGTLSLSPGERATLSCRASQSVSVRYLAWYQQKPGQAPRLLMYDASIRATGIPDRFSGSGSGTDFTLTISRLEPEDFAVYYCQQYGSWPITFGQGTKVEIK ?
Response: 0.207

Prompt: Similarly, A02_Rd4_6nM_C04 (antibody, V domains shown, IgG) VH: EVQLLESGGGLVQPGGSLRLSCAASGFTFSSYAMNWVRQAPGKGLEWVSAIMSSGGPLYYADSVKGRFTISRDNSKNTLYLQMNSLRAEDTAVYYCARYWPMALWGQGTLVTVSS VL: EIVLTQSPGTLSLSPGERATLSCRASQSVSALYLAWYQQKPGQAPRLLMYDASIRATGIPDRFSGSGSGTDFTLTISRLEPEDFAVYYCQQYQVWPLTFGQGTKVEIK ?
Response: 0.135

Prompt: What do you get for COMBO_Rd4_0.6nM_C22 (antibody, V domains shown, IgG; also called COM22) VH: EVQLLESGGGLVQPGGSLRLSCAASGFTFSSYAMNWVRQAPGKGLEWVSAISDSGGSRWYADSVKGRFTISRDNSKNTLYLQMNSLRAEDTAVYYCTRYWPMDIWGQGTLVTVSS VL: EIVLTQSPGTLSLSPGERATLSCRASVRVSSTYLAWYQQKPGQAPRLLMYDASIRATGIPDRFSGSGSGTDFTLTISRLEPEDFAVYYCQQYMKWPLTFGQGTKVEIK ?
Response: 0.036
